These entries and their values trace back to the supplement of paper PMC12764529.

assay: folding stability dG unfold from chymotrypsin proteolysis; higher = more stable
property_name: folding stability dG unfold
Record the result as a number with its unit.

Sample answers from the record:
| seq | folding stability dG unfold |
| --- | --- |
| SGFKVYIPDADLDAAVAVAKALVEKGYDTLLVDSPEVLKAIKEAIPDVKVEPVPVLPPVPPLPGEAEALFSA [r9_639_TrMRF] | 0.573 kcal/mol |
| SASVTTLTFTVTYPGGETETFTVTVPNLTEEEAKALAEKLAEEIQEKSKKPGVKVEVSITRYPADDPALSAG [r14_207_JUSTAS] | 4.13 kcal/mol |
| SAGGMKKGQKVTITIEKNEDGTLRITVKVDGKEFVFEFPKDMSLEELLKKAEEAAKKLNLPVEIEPVSAGGS [r16_446_TrROS_Hall] | 2.65 kcal/mol |
| SAGSLKPSDLVLLRSRPVRVGGKPVVLVDLVVFHPDGSASRAVLTLPSGVGPPVVGVVPVPALVRLIASSAG [r5_831_TrMRF] | 2.14 kcal/mol |

According to the records, this sequence SAGGSAGGSAGGGKKVKVIIAADKPEEAEKAIEKLEKETDLPLEDVIVIPREEAEKLGLASAGGSAGGSAGG [r7_84_TrMRF] displays folding stability dG unfold of -0.574 kcal/mol

According to the records, this sequence SMKSEEEKKAKELKKQKPVIVFDKETGKITVYDAKTGKKIEIEVKVKKTKDGKVEPLTEEELKKLLKKLASA [r9_1056_TrROS_Hall] displays folding stability dG unfold of 1.19 kcal/mol

According to the records, this sequence SAGGSAGGSGKVLVLPLPGGTVEEVKEIAKEIKEKYPNAKVTTEVFPTPEGDLVAVVTLENPESAGGSAGGS [r12_425_TrMRF] displays folding stability dG unfold of -0.0724 kcal/mol

* * *

experiment: folding stability dG unfold from trypsin proteolysis; higher = more stable
Quick list: folding stability dG unfold per entry.

| seq | folding stability dG unfold |
| --- | --- |
| SAGGSAMPVEFPSEGVVEAVNPKTGKVYLIRYETGDTKTRFVIFEPGTGEVRVIDEDTTFEEAVEDSAGGSA [r15_234_TrMRF] | 0.802 kcal/mol |
| SAGGSAGGETITVKVKIKNEDGEEIEVEAEVTKNKDGSYTITIKNKETGETKVVPNATIEEVEPSAGGSAGG [r6_254_TrROS_Hall] | 1.59 kcal/mol |

According to the records, this sequence SAGGSAGGSAGGMLILVEVNGEKRLLEADSLEDALAKLPPGATVTRVEIFEVEEVELPESAGGSAGGSAGGS [r10_13_TrROS_Hall] displays folding stability dG unfold of 2.36 kcal/mol

According to the records, this sequence SAGWFISIKYKDPPTGRKRKISIPIPPGDPWLKELGFPSLDGLAKWLAPEMREEGHDVKDVKVEIMPPKSAG [r5_722_TrROS] displays folding stability dG unfold of 3.38 kcal/mol

According to the records, this sequence SAGGSAGGSAGEIVEVDGKLYIRVRTKDGEWKLIEMSADEIASLPAENVEEVEIVDPKDLSAGGSAGGSAGG [r11_779_TrROS_Hall] displays folding stability dG unfold of 2.6 kcal/mol

According to the records, this sequence SKKVTIMIMIRRRDPEDGKYRPIPPEFILEMVRRARKKGKKVKITFMNPDNPWAKRLAKRAKEEGIKIEWSA [r9_468_TrROS] displays folding stability dG unfold of 2 kcal/mol

According to the records, this sequence SAGGSAGGMTIEVTFPDGTKLTITLENDGPDTLLATAEVEAPRAGGPSIPKEVAAKLAEELLASSAGGSAGG [r6_234_TrMRF] displays folding stability dG unfold of 1.19 kcal/mol
